From: patent US20200340042

# TESTED_SYSTEM: T1, glutamate dehydrogenase (nGDH, native) (Clostridium difficile, UniProt P27346 SEQ:1-421)
# T1 sequence: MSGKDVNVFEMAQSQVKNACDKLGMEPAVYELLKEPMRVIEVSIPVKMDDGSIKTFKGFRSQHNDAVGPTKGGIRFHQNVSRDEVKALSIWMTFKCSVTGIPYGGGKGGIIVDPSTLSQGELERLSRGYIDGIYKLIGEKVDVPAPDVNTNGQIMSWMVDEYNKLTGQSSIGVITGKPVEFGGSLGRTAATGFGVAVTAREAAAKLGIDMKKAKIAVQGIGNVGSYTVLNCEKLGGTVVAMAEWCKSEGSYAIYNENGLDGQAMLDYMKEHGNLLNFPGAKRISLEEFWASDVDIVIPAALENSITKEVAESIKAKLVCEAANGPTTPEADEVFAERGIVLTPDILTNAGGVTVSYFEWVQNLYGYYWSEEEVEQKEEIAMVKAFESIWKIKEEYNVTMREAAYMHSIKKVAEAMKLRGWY
# TEST_SUMMARY: FP filter; paper filter binding; binding buffer with 10 mM MgCl2, 1% BSA
# CONDITION_INFO: tags: Pro-Lab Diagnostics; chain copies: 6 stated; label: 32P
OBSERVABLE: Kd (nM)
# number only, unit nM dropped from output

Challenge: So what does the record say about Kd for Capt-4 (ssDNA) DNA: CAGGTCCATCGAGTGGTAGGACGACCCGAATAGTGGCATATCAATGAGTGCTTGTCATCTTTCGCACTGCTCCTGAACGTAC ?
Response given: 2.8
